Assay: Metabolic stability in human liver microsomes
Assay type: in vitro ADME
readoutType: half-life at 1 μM (min)
Give the number; min is assumed, so skip it.

Report half-life at 1 μM for CCOC(=O)C1=C(C)N/C(=C/c2cc(C)n(-c3ccc(C(F)(F)F)cc3)c2C)C1=O please.
35

* * *

Test: Metabolic stability in mouse liver microsomes
Type: in vitro ADME
Conditions: incubated with mouse liver microsomes
readoutType: metabolic stability (in words)

# input compound: CCOC(=O)C1=C(C)N/C(=C/c2cc(C)n(-c3ccc(CN(C)C)cc3)c2C)C1=O ; wanted: its metabolic stability (in words)
slightly more stable

Endpoint output: metabolic stability (in words) of CC1=CC(=O)/C(=C\c2cc(C)n(-c3ccccc3C(F)(F)F)c2C)N1 [Compound 10d] . Value?
slightly more stable

Give its metabolic stability (in words) value. Item: CCOC(=O)C1=C(C)N/C(=C/c2cc(C)n(-c3ccc(N4CCOCC4)cc3)c2C)C1=O
slightly more stable

* * *

Listed next: entries and their corresponding half-life.
Experiment: in vivo
Settings: male, Sprague Dawley, rat, plasma

What measured half-life goes with CCOC(=O)C1=C(C)N/C(=C/c2cc(C)n(-c3ccccc3C(F)(F)F)c2C)C1=O ?
≥ 8 h

Attention now turns to another entry.
What value of measured half-life is listed for CCOC(=O)C1=C(C)N/C(=C/c2cc(C)n(-c3ccc(C(F)(F)F)cc3)c2C)C1=O ?
≥ 8 h
